Values from ChEMBL document CHEMBL1201862

experimental system: Replicative DNA helicase DnaB (Mycobacterium tuberculosis, UniProt P9WMR3)
Sequence (P9WMR3 whole entry): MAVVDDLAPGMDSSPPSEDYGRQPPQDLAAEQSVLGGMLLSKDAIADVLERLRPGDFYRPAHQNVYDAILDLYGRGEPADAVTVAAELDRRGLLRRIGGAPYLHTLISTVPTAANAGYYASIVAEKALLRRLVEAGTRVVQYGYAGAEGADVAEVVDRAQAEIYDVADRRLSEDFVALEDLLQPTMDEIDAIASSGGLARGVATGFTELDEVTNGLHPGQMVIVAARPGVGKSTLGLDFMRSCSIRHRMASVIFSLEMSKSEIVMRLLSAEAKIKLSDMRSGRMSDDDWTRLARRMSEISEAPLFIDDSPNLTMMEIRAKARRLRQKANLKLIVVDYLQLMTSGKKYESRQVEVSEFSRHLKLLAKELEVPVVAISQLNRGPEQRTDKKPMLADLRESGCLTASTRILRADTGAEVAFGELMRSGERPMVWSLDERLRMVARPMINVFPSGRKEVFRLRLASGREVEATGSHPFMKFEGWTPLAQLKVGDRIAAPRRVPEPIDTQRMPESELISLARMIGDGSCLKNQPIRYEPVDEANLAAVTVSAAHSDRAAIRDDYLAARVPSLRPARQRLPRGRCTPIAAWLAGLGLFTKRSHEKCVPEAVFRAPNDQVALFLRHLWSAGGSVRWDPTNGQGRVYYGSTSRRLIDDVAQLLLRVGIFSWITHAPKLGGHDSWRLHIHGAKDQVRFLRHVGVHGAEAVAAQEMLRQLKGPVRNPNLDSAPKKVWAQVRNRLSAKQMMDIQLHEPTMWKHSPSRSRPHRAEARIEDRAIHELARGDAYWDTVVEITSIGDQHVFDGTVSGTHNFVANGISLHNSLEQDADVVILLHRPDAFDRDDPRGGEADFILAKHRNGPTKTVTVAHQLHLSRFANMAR
measurement notes: DnaB intein splicing inhibitors, dose response, biochemical, cell-free fluorescence (AID 449749)
Format: functional
Calls of active or inactive are those of the source. Cut-off read from the data, not from the text of the source: actives have a measured AC50 and inactives only a lower limit.
Thanks in advance; please answer with one of these: active, inactive

Exercise: Entry "C/C(CC(=O)N1CCN(C=O)CC1)=N\NC(=O)c1cccc([N+](=O)[O-])c1" : call = ?
Key: active

Exercise: Entry "Cc1cc(N/N=C/c2ccc(O)c(C)c2O)nc(-c2ccccc2O)n1" : call = ?
Key: inactive

Exercise: Entry "c1ccc(CNc2nc(NCc3ccccc3)c3ccccc3n2)cc1" : call = ?
Key: active

Exercise: Entry "N#C/C(=C\c1cccc(NC(=O)c2ccccc2Cl)c1)C(=O)NCCc1ccccc1" : call = ?
Key: active

Exercise: Entry N#CC1=C(N)Oc2[nH]nc(-c3cccs3)c2C1c1ccsc1 (centres undefined) : call = ?
Key: active

Exercise: Entry "O=C(Cc1cc(O)[nH]n1)N/N=C/C=C/c1ccccc1" : call = ?
Key: active

Exercise: Entry "Cc1nnc(NC(=O)c2nc(S(=O)(=O)Cc3ccccc3)ncc2Cl)s1" : call = ?
Key: active

Exercise: Entry O=C(Oc1ccc(Br)cc1)C1CC(=O)N(c2ccc(F)cc2)C1 (centres undefined) : call = ?
Key: active

Exercise: Entry "NS(=O)(=O)c1ccc(N=Nc2ccc(O)nc2O)cc1" : call = ?
Key: active

Exercise: Entry Cc1ccc(C(C[N+](=O)[O-])c2c(C)[nH]n(-c3ccccc3)c2=O)cc1 (centres undefined) : call = ?
Key: active

Exercise: Entry CCCc1nn(C)c2c1C(c1cccnc1)C(C#N)=C(N)O2 (centres undefined) : call = ?
Key: active

Exercise: Entry "CCc1cccc(CC)c1NC(=O)/C(C#N)=C/c1ccccc1C(F)(F)F" : call = ?
Key: active

Exercise: Entry "Cc1cc(C(c2ccc(O)cc2)c2cc(C)c(O)cc2C)c(C)cc1O" : call = ?
Key: active

Exercise: Entry "COc1ccc(-c2oc(NC(=O)CCl)c(C#N)c2-c2ccc(OC)cc2)cc1" : call = ?
Key: active
